Assignment: determine reported EC50 for the given compounds.
target: human CB2 receptors (Homo sapiens (Human), UniProt P34972); experiment: functional cAMP assay, CHO cells expressing human CB2; format: cell-based; conditions: read-out: Human CB2 EC50
Sequence (P34972 whole entry): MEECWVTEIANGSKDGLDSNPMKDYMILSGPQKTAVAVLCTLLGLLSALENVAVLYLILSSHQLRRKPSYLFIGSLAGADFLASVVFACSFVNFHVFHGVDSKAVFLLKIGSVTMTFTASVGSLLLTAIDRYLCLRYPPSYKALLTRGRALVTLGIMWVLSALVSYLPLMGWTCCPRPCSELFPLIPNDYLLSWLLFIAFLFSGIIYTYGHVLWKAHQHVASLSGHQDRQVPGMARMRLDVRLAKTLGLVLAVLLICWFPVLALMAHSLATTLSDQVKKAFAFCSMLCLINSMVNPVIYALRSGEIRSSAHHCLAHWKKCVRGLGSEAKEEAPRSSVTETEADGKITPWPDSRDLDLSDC

Example results:
compound	EC50
C[C@H](Oc1cc(C(=O)NC(C(=O)N(C)C)C(C)(C)C)ncc1C1CC1)C(F)(F)F (stereo partly shown)	2.4 nM
CCC(CC)(CO)NC(=O)c1cc(OCC(F)(F)F)c(C2CC2)cn1	18.5 nM
CC(CC1CC1)(NC(=O)c1cc(OCC(F)(F)F)c(C2CC2)cn1)c1nnn[nH]1 (stereo not shown)	935 nM

We next turn to a different compound, shown below.
Asked: Look up and report measured EC50 for this entry: CC(CS(C)(=O)=O)(NC(=O)c1cc(OCC(F)(F)F)c(C2CC2)cn1)C(N)=O (stereo not shown)
Given back: 888 nM

---

target: human CB2 receptors (Homo sapiens (Human)); test: functional cAMP assay, CHO cells expressing human CB2; assay type: cell-based; conditions: read-out: Human CB2 EC50
property-name: pEC50
Numbers only, as −log10 of the molar value.

Example results:
molecule	pEC50
O=C(NC1(c2nccs2)COC1)c1cc(OCC2CC2)c(Cl)cn1 [Example 32]	7.13
Cc1nc(C(C)(NC(=O)c2cc(O[C@@H](C)C(F)(F)F)c(C3CC3)cn2)C2CC2)no1 (single isomer, unassigned; epimer a) [Example 68]	8.40
C[C@H](Oc1cc(C(=O)NC(C)(CC(N)=O)C2CC2)ncc1C1CC1)C(F)(F)F (stereo partly shown) [Example 248]	9.05
Cc1nc(C(NC(=O)c2cc(O[C@@H](C)C(F)(F)F)c(C3CC3)cn2)C(C)(C)C)no1 (stereo partly shown) [Example 221]	8.08
Cc1nc(C(C)(CC2CC2)NC(=O)c2cc(OCC(F)(F)F)c(C3(O)COC3)cn2)no1 (stereo not shown) [Example 123]	6.00
CC(CF)Oc1cc(C(=O)NC(C)(CC(N)=O)C2CC2)ncc1C1CC1 (single isomer, unassigned) [Example 304]	8.68
NC(=O)[C@@H]1CC(F)(F)CN1C(=O)c1cc(OCC2CC2)c(C2CC2)cn1 [Example 114]	6.00
O=C(NC1(CO)CCCC1)c1cc(OCC2CC2)c(Cl)cn1 [Example 6]	7.28

Provide each entry's pEC50 from the list below.
1. Cn1nnc(C(NC(=O)c2cc(OCC(F)(F)F)c(C3CC3)cn2)C(C)(C)C)n1 (stereo not shown) [Example 163]
2. NC(=O)CC1(NC(=O)c2cc(OCC3CC3)c(N3CC(F)(F)C3)cn2)COC1 [Example 222]
3. CC(C)[C@](C)(CO)NC(=O)c1cc(Cc2ccc(F)cc2)c(Cl)cn1 [Example 15]
4. Cc1nc(C(C)(CS(C)(=O)=O)NC(=O)c2cc(OCC(F)(F)F)c(C3(F)COC3)cn2)no1 (single isomer, unassigned) [Example 133]
5. CNC(=O)[C@@H](NC(=O)c1cc(OCC(F)(F)F)c(C2CC2)cn1)C(C)(C)C [Example 48]

Given back:
8.35
7.33
8.24
6.25
8.80

Provide each entry's pEC50 from the list below.
1. NC(=O)CC1(NC(=O)c2cc(OCC(F)(F)F)c(C3(F)CCC3)cn2)CS(=O)(=O)C1 [Example 286]
2. Cc1nc(C(C)(CS(C)(=O)=O)NC(=O)c2cc(OC(C)CF)c(C3CC3)cn2)no1 (single isomer, unassigned) [Example 297]
3. O=C(NC1(c2nccs2)COC1)c1cc(OCC2CC2)c(C2CC2)cn1 [Example 42]

Given back:
7.34
8.49
7.94

Provide each entry's pEC50 from the list below.
1. Cc1nc(C(C)(CC2CC2)NC(=O)c2cc(O[C@@H](C)C(F)(F)F)c(C3CC3)cn2)no1 (stereo partly shown) [Example 100]
2. CN(C(=O)c1cc(-c2cccc(Cl)c2)ccn1)C(C)(C)C [Example 86]
3. CNC(=O)[C@@H](C)C(C)(C)NC(=O)c1cc(OCC2CC2)c(Cl)cn1 [Example 34]
4. CC(C)(C)C(NC(=O)c1cc(OCC2CC2)c(C2CC2)cn1)c1nccs1 (stereo not shown) [Example 43]
5. CNC(=O)C(C)(CC1CC1)NC(=O)c1cc(OCC(F)(F)F)c(C2CC2)cn1 (stereo not shown) [Example 189]

Given back:
1: 9.22; 2: 6.84; 3: 6.57; 4: 8.49; 5: 6.53

Provide each entry's pEC50 from the list below.
1. NC(=O)[C@@H]1CC(F)(F)CN1C(=O)c1cc(OCC(F)(F)F)c(C2CC2)cn1 [Example 115]
2. C[C@H](Oc1cc(C(=O)NC2(CC(N)=O)CS(=O)(=O)C2)ncc1C1(F)COC1)C(F)(F)F [Example 265]
3. C[C@H](Oc1cc(C(=O)NC(c2nnn(C)n2)C(C)(C)C)ncc1C1CC1)C(F)(F)F (stereo partly shown) [Example 216]
4. Cc1nc(C(C)(CC2CC2)NC(=O)c2cc(O[C@@H](C)C(F)(F)F)c(C3(F)COC3)cn2)no1 (stereo partly shown) [Example 170]
5. CNC(=O)C(C)(NC(=O)c1cc(O[C@@H](C)C(F)(F)F)c(C2(F)COC2)cn1)c1noc(C)n1 (stereo partly shown) [Example 183]

Given back:
1: 5.90; 2: 6.99; 3: 8.33; 4: 7.60; 5: 6.04

Provide each entry's pEC50 from the list below.
1. CCCC(C)(CO)NC(=O)c1cc(OCC2CC2)c(Cl)cn1 (stereo not shown) [Example 33]
2. Cc1nc(C(C)(CS(C)(=O)=O)NC(=O)c2cc(OCC(F)(F)F)c(C3=CCC3)cn2)no1 (stereo not shown) [Example 127]

Given back:
[7.61, 7.71]
